Biological target: T1, human Gal10-His (human, UniProt Q05315 2-142, limits assumed)
T1 construct: also called hGal10-His; human Gal10-His tagged; not shown: His tag
T1 sequence: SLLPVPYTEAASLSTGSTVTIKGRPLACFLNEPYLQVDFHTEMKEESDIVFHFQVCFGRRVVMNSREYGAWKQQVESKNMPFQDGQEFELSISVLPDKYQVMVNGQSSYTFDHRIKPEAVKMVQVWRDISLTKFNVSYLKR
Experiment: SPR Biacore 3000, hFab on captured human Gal10-His; column head prints (M), the text gives nM
Observed property: Kd
Note to self: number, then unit, no commentary.

I would be grateful if you could share the reported Kd for g7B07_N53A (human Fab) (Fab, V domains shown, VH assembled by inference as for g7B07; Human Fab backbone; also called g7B07_N53A (mean)) VH: EVQLLESGGGLVQPGGSLRLSCAASGFTFRSYDMSWVRQAPGKGLEWVSAIKAGGGITYYADSVKGRFTISRDNSKNTLYLQMNSLRAEDTAVYYCATTHGIGTLGFGSWGQGTLVTVSS VL: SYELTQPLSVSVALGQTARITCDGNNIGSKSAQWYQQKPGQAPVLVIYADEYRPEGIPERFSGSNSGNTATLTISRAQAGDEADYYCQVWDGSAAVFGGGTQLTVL .
145 nM

Requested read-out: Kd. Entry: g24F02 (human Fab) (Fab, V domains shown, Human Fab backbone (human CH1, human lambda CL); also called germlined 24F02) VH: EVQLLESGGGLVQPGGSLRLSCAASGFTFSSYAMSWVRQAPGKGLEWVSAINNGGGSTSYADSVKGRFTISRDNSKNTLYLQMNSLRAEDTAVYYCAKGLRVGVLGFDYWGQGTLVTVSS VL: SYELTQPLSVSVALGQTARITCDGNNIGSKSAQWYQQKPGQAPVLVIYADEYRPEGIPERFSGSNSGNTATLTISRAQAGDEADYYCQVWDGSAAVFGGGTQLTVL
1.49 nM

What measured Kd goes with g7B07 (human Fab) (Fab, V domains shown, Human Fab backbone; their format is not certain; also called g7B07-hFab; germlined 7B07) VH: EVQLLESGGGLVQPGGSLRLSCAASGFTFRSYDMSWVRQAPGKGLEWVSAIKNGGGITYYADSVKGRFTISRDNSKNTLYLQMNSLRAEDTAVYYCATTHGIGTLGFGSWGQGTLVTVSS VL: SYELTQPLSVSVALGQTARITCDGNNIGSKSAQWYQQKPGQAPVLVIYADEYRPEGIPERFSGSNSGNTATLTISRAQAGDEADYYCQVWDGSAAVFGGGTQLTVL ?
9.08 nM

Name the reported Kd value associated with the binder g23H09 (Fab) (Fab, V domains shown, same VH/VL) VH: EVQLLESGGGLVQPGGSLRLSCAASGFTFRSYDMSWVRQAPGKGLEWVSAIAQFQHWTYYADSVKGRFTISRDNSKNTLYLQMNSLRAEDTAVYYCATTHGIGTLGFGSWGQGTLVTVSS VL: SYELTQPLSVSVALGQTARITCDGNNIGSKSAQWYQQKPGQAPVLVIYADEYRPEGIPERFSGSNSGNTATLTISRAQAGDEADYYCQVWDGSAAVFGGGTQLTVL
5.34 nM
